Every entry's value here was drawn from ChEMBL document CHEMBL3352237.

- System: Enterococcus faecium
- ASSAY SUMMARY: Antibacterial activity against vancomycin-resistant Enterococcus faecium clinical isolate 27/16917 after overnight incubation by two-fold serial dilution method
- Type: functional
- CONDITION NOTES: isolate 27/1691
MEASURED QUANTITY: MIC (µg/mL)
Give the quantity in µg/mL, number only.

Query: Give MIC for H-HWRLLLLKKH-OH
Response: 25

Query: Given H-RWRLLLLKKF-OH , respond with its MIC.
Response: 25

Query: Give recorded MIC. H-RWRLLLLKRH-OH
Response: 12.5

Query: Fill in MIC for record H-RWRLLLLKKH-OH
Response: 12.5

Query: Give MIC for H-RWRLLLLLKRH-OH
Response: 25

----------
Record form. Attribute: MIC. Fill in for each entry.
- Test system: Enterococcus faecium
- ASSAY SUMMARY: Antibacterial activity against vancomycin-resistant Enterococcus faecium clinical isolate 27/221 after overnight incubation by two-fold serial dilution method
- Assay type: functional
Kindly answer with a numeric value in µg/mL, unit omitted.

Query: Give MIC for the following substance: H-RWRLLLLKRH-OH
Response: 12.5

Query: Please report the measured MIC for H-RWRLLLLKKH-OH
Response: 12.5

Query: Please report the measured MIC for H-RWRLLLLKKF-OH
Response: 25

Query: Give MIC for H-HWRLLLLKKH-OH
Response: 25

Query: Indicate the recorded MIC value for this substance: H-RWRLLLLLKRH-OH
Response: 25

----------
- Tested on: Enterococcus faecium
- ASSAY SUMMARY: Antibacterial activity against vancomycin-resistant Enterococcus faecium clinical isolate 13246 after overnight incubation by two-fold serial dilution method
- Type: functional
MEASURED QUANTITY: MIC (µg/mL)
# output: bare number, implied unit µg/mL

Query: Enter measured MIC, system Enterococcus faecium, for the substance shown: H-HWRLLLLKKH-OH
Response: 25

Query: Give Enterococcus faecium MIC for the following substance: H-RWRLLLLLKRH-OH
Response: 25

Query: Tell me MIC of H-RWRLLLLKKF-OH when tested on Enterococcus faecium.
Response: 25

Query: Check Enterococcus faecium data and give MIC for H-RWRLLLLKKH-OH .
Response: 12.5

Query: State MIC on Enterococcus faecium. Entry: H-RWRLLLLKRH-OH
Response: 12.5

----------
- System: Enterococcus faecalis
- ASSAY SUMMARY: Antibacterial activity against vancomycin-resistant Enterococcus faecalis clinical isolate 22/203 after overnight incubation by two-fold serial dilution method
- Format: functional
MEASURED QUANTITY: MIC
I'd appreciate it if you wrote the number followed by its unit.

Query: Provide measured MIC value, entry: H-RWRLLLLKRH-OH
Response: 12.5 µg/mL

Query: Entry H-RWRLLLLKKF-OH needs its MIC filled in; supply it.
Response: 25 µg/mL

Query: Give MIC for H-RWRLLLLKKH-OH
Response: 12.5 µg/mL

Query: For H-RWRLLLLLKRH-OH , write its MIC.
Response: 25 µg/mL

Query: Tell me measured MIC for H-HWRLLLLKKH-OH please.
Response: 25 µg/mL

----------
- ASSAY SUMMARY: Hemolytic activity against human RBC at 5 times MIC after 1 hr by spectrophotometry
- Type: ADME, cell-based, Erythrocyte
- CONDITION NOTES: red blood cells, read-out: Activity
MEASURED QUANTITY: hemolysis at 1 h, 5 times MIC

Query: Note down hemolysis at 1 h, 5 times MIC recorded for H-RWRLLLLKKH-OH
Response: < 5%

----------
I'd appreciate it if you could supply MIC values for the items below.
- Tested on: Enterococcus faecalis
- ASSAY SUMMARY: Antibacterial activity against vancomycin-resistant Enterococcus faecalis clinical isolate 22626 after overnight incubation by two-fold serial dilution method
- Type: functional
Report as: number unit

Query: Give MIC for the following substance: H-HWRLLLLKKH-OH
Response: 25 µg/mL

Query: Specify reported MIC for the substance shown: H-RWRLLLLKRH-OH
Response: 12.5 µg/mL

Query: Read off the recorded MIC for H-RWRLLLLKKF-OH
Response: 25 µg/mL

Query: Find the measured MIC of H-RWRLLLLKKH-OH and report it.
Response: 12.5 µg/mL

Query: Please report MIC for the following substance: H-RWRLLLLLKRH-OH
Response: 25 µg/mL

----------
- System: Enterococcus faecium
- ASSAY SUMMARY: Antibacterial activity against vancomycin-resistant Enterococcus faecium clinical isolate 30/48 after overnight incubation by two-fold serial dilution method
- Format: functional
I'd be grateful if you could share measured MIC for these entries.
Response body: numeric value in µg/mL, unit text excluded.

Query: Specify reported MIC for the substance shown: H-HWRLLLLKKH-OH
Response: 25

Query: Note MIC for the substance shown: H-RWRLLLLKKH-OH
Response: 12.5

Query: // fetch MIC given entry H-RWRLLLLKKF-OH
Response: 25

Query: Provide MIC value for the following substance: H-RWRLLLLKRH-OH
Response: 12.5

Query: Return MIC for the following substance: H-RWRLLLLLKRH-OH
Response: 25

----------
- Tested on: Enterococcus faecium
- ASSAY SUMMARY: Antibacterial activity against vancomycin-resistant Enterococcus faecium clinical isolate 6/22 after overnight incubation by two-fold serial dilution method
- Format: functional
For each entry below, report its MIC value.
Answer in µg/mL, number only, no unit symbol.

Query: Return value of MIC for input H-HWRLLLLKKH-OH , no commentary.
Response: 25

Query: Please report MIC for the following substance: H-RWRLLLLKKH-OH
Response: 12.5

Query: Please list MIC recorded for the substance H-RWRLLLLKKF-OH
Response: 25

Query: Give the reported MIC for this substance. H-RWRLLLLLKRH-OH
Response: 25

Query: Give reported MIC value for H-RWRLLLLKRH-OH
Response: 12.5

----------
- System: Enterococcus faecium
- ASSAY SUMMARY: Antibacterial activity against vancomycin-resistant Enterococcus faecium clinical isolate 12875 after overnight incubation by two-fold serial dilution method
- Assay type: functional
MEASURED QUANTITY: MIC (µg/mL)
API: value field is a number in µg/mL; no unit string.

Query: Complete the entry with MIC for H-RWRLLLLKKH-OH
Response: 12.5

Query: For H-RWRLLLLKKF-OH , write its MIC.
Response: 25

Query: Indicate its recorded MIC; the substance in question is H-RWRLLLLLKRH-OH
Response: 25

Query: Kindly indicate its recorded MIC. Item: H-HWRLLLLKKH-OH
Response: 25

Query: Identify measured MIC associated with H-RWRLLLLKRH-OH
Response: 12.5

----------
- Tested on: Enterococcus faecium
- ASSAY SUMMARY: Antibacterial activity against vancomycin-resistant Enterococcus faecium clinical isolate 16115 after overnight incubation by two-fold serial dilution method
- Type: functional
MEASURED QUANTITY: MIC (µg/mL)
Answer format: numeric, µg/mL implied, no suffix.

Query: Annotate the substance H-RWRLLLLKRH-OH with its measured MIC.
Response: 12.5

Query: Using the record for H-RWRLLLLKKF-OH , state its measured MIC.
Response: 25

Query: Using known records, supply MIC for H-RWRLLLLKKH-OH
Response: 12.5

Query: Item H-HWRLLLLKKH-OH : provide MIC
Response: 25

Query: Provide MIC value for the following substance: H-RWRLLLLLKRH-OH
Response: 25

----------
- Tested on: Enterococcus faecium
- ASSAY SUMMARY: Antibacterial activity against vancomycin-resistant Enterococcus faecium clinical isolate 14643 after overnight incubation by two-fold serial dilution method
- Assay type: functional
MEASURED QUANTITY: MIC (µg/mL)
Expressed in µg/mL, but write only the number.

Query: For H-RWRLLLLKKF-OH , write its MIC.
Response: 25

Query: Give reported MIC value for H-RWRLLLLLKRH-OH
Response: 25

Query: Look up MIC of H-HWRLLLLKKH-OH and report it.
Response: 25

Query: Indicate the recorded MIC value for this substance: H-RWRLLLLKRH-OH
Response: 12.5

Query: # return recorded MIC for entry H-RWRLLLLKKH-OH
Response: 6.25

----------
- Tested on: Enterococcus faecium
- ASSAY SUMMARY: Antibacterial activity against vancomycin-resistant Enterococcus faecium clinical isolate 15/213 after overnight incubation by two-fold serial dilution method
- Format: functional
For each entry below, report its MIC value.
Numeric answer only, unit µg/mL assumed.

Query: Provide MIC, tested on Enterococcus faecium, for H-RWRLLLLKRH-OH .
Response: 12.5

Query: Name the recorded MIC of H-RWRLLLLKKH-OH , assay system Enterococcus faecium.
Response: 6.25

Query: Give measured MIC for H-HWRLLLLKKH-OH (Enterococcus faecium).
Response: 25

Query: Give measured MIC for H-RWRLLLLLKRH-OH (Enterococcus faecium).
Response: 25

Query: GET MIC | system: Enterococcus faecium | item: H-RWRLLLLKKF-OH
Response: 25
